Below, each of the compounds is paired with its reported IC10 (10% AChE inhibition), best fit value.
assayed system: AChE from electric eel (Electrophorus electricus) (Electrophorus electricus, UniProt O42275)
Construct: purchased Sigma-Aldrich GmbH (Steinheim, Germany)
Sequence (O42275 24-633): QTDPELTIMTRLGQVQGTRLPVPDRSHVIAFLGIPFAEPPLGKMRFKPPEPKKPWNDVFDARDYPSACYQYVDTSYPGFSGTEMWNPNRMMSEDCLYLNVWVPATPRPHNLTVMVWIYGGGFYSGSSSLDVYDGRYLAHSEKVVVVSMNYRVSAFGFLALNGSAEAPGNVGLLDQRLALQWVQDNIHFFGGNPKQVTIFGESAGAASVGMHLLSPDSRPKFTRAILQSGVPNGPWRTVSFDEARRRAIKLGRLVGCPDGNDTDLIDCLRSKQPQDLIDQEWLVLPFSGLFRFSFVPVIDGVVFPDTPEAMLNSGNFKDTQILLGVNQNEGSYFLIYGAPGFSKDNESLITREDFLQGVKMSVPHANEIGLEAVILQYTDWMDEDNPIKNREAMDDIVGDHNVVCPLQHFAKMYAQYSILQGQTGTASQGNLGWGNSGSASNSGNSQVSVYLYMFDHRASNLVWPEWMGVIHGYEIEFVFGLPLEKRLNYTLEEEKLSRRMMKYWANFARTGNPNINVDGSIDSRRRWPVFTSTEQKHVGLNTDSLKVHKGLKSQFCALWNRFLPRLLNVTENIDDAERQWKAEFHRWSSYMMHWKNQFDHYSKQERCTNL
assay: HPTLC-(Ox)-AChE-I assay, immersion method (plates immersed in AChE solution)
Type: biochemical
condition context: without oxidation, OTPs 100 µL, oxons 10 µL applied, peak heights, n = 3
Unit ng/spot implied. Number only.

Exam item: Requested field: IC10 (10% AChE inhibition), best fit. Item: CCOC(=O)CC(SP(=S)(OC)OC)C(=O)OCC (stereo not shown)
Marked response: 313

Exam item: Ok, now `CCOP(=O)(OCC)Oc1nc(Cl)c(Cl)cc1Cl`
Marked response: 0.32

Exam item: Ok, now `CCOP(=O)(OCC)Oc1ccc([N+](=O)[O-])cc1`
Marked response: 0.60

Continuing:
Exam item: Requested field: IC10 (10% AChE inhibition), best fit. Item: CCOC(=O)CC(SP(=O)(OC)OC)C(=O)OCC (stereo not shown)
Marked response: 0.14

----------
Below, each of the compounds is paired with its reported IC80 (80% AChE inhibition), best fit value.
assayed system: AChE from electric eel (Electrophorus electricus) (Electrophorus electricus, UniProt O42275)
Construct: purchased Sigma-Aldrich GmbH (Steinheim, Germany)
assay: HPTLC-(Ox)-AChE-I assay, spray method (AChE sprayed onto plates)
Type: biochemical
condition context: spray method; without oxidation; OTPs 100 µL, oxons 10 µL applied; peak heights, n = 3
Unit ng/spot implied. Number only.

Some compounds with known IC80 (80% AChE inhibition), best fit results, for comparison:
Exam item: Requested field: IC80 (80% AChE inhibition), best fit. Item: `CCOP(=O)(OCC)Oc1ccc([N+](=O)[O-])cc1`
Marked response: 5.9

Exam item: Ok, now CCOC(=O)CC(SP(=O)(OC)OC)C(=O)OCC (stereo not shown)
Marked response: 2.0

Exam item: Ok, now CCOC(=O)CC(SP(=S)(OC)OC)C(=O)OCC (stereo not shown)
Marked response: 8910

Alright, here's another compound for you.
Exam item: Requested field: IC80 (80% AChE inhibition), best fit. Item: `CCOP(=O)(OCC)Oc1nc(Cl)c(Cl)cc1Cl`
Marked response: 5.4

----------
assayed system: AChE from electric eel (Electrophorus electricus) (Electrophorus electricus, UniProt O42275)
Construct: purchased Sigma-Aldrich GmbH (Steinheim, Germany)
assay: HPTLC-(Ox)-AChE-I assay, spray method (AChE sprayed onto plates)
Format: biochemical
condition context: spray method; without oxidation; OTPs 100 µL, oxons 10 µL applied; peak heights, n = 3
Procedure: LiChrospher 10 × 20 cm HPTLC Silica gel 60 F254s plates (Merck, Darmstadt, Germany) with a layer thickness of 170–190 µm and spherical silica particles with a size of 7 µm were used. […] The following AChE-I assay was performed in parts according to Mendoza et al., Stütz et al., and Weins and Jork. […] The TLC Scanner 3 (CAMAG, Muttenz, Switzerland) was used to scan each track on the plates at 670 nm using the fluorescence mode without optical filter. […]
Below, each of the compounds is paired with its reported IC10 (10% AChE inhibition), best fit value.
Just so you know, I need the unit written after the number.

Some compounds with known IC10 (10% AChE inhibition), best fit results, for comparison:
Exam item: Requested field: IC10 (10% AChE inhibition), best fit. Item: CCOC(=O)CC(SP(=S)(OC)OC)C(=O)OCC (stereo not shown)
Marked response: 212 ng/spot

Exam item: Ok, now `CCOP(=O)(OCC)Oc1ccc([N+](=O)[O-])cc1`
Marked response: 0.79 ng/spot

Exam item: Ok, now CCOC(=O)CC(SP(=O)(OC)OC)C(=O)OCC (stereo not shown)
Marked response: 0.16 ng/spot

Alright, here's another compound for you.
Exam item: Requested field: IC10 (10% AChE inhibition), best fit. Item: `CCOP(=O)(OCC)Oc1nc(Cl)c(Cl)cc1Cl`
Marked response: 0.72 ng/spot
